# SYSTEM UNDER TEST: HLA-A*02:01 (Homo sapiens, UniProt P04439, D140Y/D185E/D98H/E176V/E277Q/G131W/G231S/I119V/I121R/I166T/I218V/L300P/L318F/N151K/N90K/P208A/P217A/Q86G/Q94H/R138H/R169H/T345S)
# ASSAY PROCEDURE: MHC binding assay: UV-ligand exchange with beta2m ELISA (peptide exchange yield)
# MEASUREMENT PARAMETERS: binding to HLA-A*02:01
PROPERTY LABEL: Peptide exchange (MHC class I binding score, peptide exchange yield)

// below: answered substances
501 (LLDPNVKSIFV; listed as Homo sapiens) [compound 501]; “+++” (≥50 = +++)
136 (YLADPSNLFVV; listed as Homo sapiens) [compound 136]; “+++” (≥50 = +++)
194 (ALPLFVITV; listed as Homo sapiens) [compound 194]; “+++” (≥50 = +++)
596 (ALLDQTKTLAESAL; listed as Homo sapiens) [compound 596]; “+++” (≥50 = +++)
274 (SLLFSLFEA; listed as Homo sapiens) [compound 274]; “++” (≥20% = ++)
191 (LLQEGQALEYV; listed as Homo sapiens) [compound 191]; “++” (≥20% = ++)
577 (VMFEDGVLMRL; listed as Homo sapiens) [compound 577]; “+++” (≥50 = +++)
163 (ALDEMGDLLQL; listed as Homo sapiens) [compound 163]; “+++” (≥50 = +++)
579 (NLMEMVAQL; listed as Homo sapiens) [compound 579]; “++” (≥20% = ++)
519 (GLLHLTLLL; listed as Homo sapiens) [compound 519]; “+++” (≥50 = +++)

From here, focus on the item given below.
For the substance 512 (SLSEIVPCL; listed as Homo sapiens) [compound 512] , what Peptide exchange (MHC class I binding score, peptide exchange yield) is on record?
“+++” (≥50 = +++)
